# Tgt: T1, Boi1, P38041
# T1 sequence (P38041 1-86, looked up): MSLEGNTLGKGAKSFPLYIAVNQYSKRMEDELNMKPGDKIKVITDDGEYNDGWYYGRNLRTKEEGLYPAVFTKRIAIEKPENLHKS
# Experiment: SPOT array
# Condition Details: median of control spots 1162
Observation Type: SPOT intensity

Examples with their reported SPOT intensity follow.
INSERT INTO assay_data (binder, test_result) VALUES
  ('KKAPPPVVKPKPRNF', 0),
  ('PKMLPIPSKPTLFDL', 0);

P = YHSRRHPLALGFKYV
Q = SAPDIPPRSPNRNAH
Asked: Hello, I am sorting some records. Could you say if P or Q has the smaller SPOT intensity value? Your choice should be expressed through its label.
Given back: P
(P: 0, Q: 240)
